STUDY_TARGET: UniProtKB P06746
PROCEDURE_TEXT: Compound was evaluated for the inhibition of cellular DNA polymerase (beta)
Recorded pIC50 values for a group of compounds are listed next.
Just the number, please; pIC50 means minus log10 of the concentration in mol/L.

These solved cases illustrate the format of a correct answer.
O=c1ccn([C@@H]2C[C@@H](F)[C@H](COP(=O)(O)OP(=O)(O)OP(=O)(O)O)O2)c(=O)[nH]1 (stereo in doubt) : 5.52
Cc1cn([C@@H]2C[C@@H](F)[C@H](COP(=O)(O)OP(=O)(O)OP(=O)(O)O)O2)c(=O)nc1N (stereo in doubt) : 6.00
Cc1cn([C@@H]2C[C@@H](F)[C@H](COP(=O)(O)OP(=O)(O)OP(=O)(O)O)O2)c(=O)[nH]c1=O (stereo in doubt) : 5.66

We now examine a further compound.
Input: Could you please provide reported pIC50 for Nc1ccn([C@@H]2C[C@@H](F)[C@H](COP(=O)(O)OP(=O)(O)OP(=O)(O)O)O2)c(=O)n1 (stereo in doubt) ? Thanks!
Output: 6.00

###

STUDY_TARGET: Human immunodeficiency virus type 1 reverse transcriptase (Human immunodeficiency virus 1, UniProt Q72547)
READOUT_TYPE: IC50 (µM)
Response body: numeric value in µM, unit text excluded.

O=c1ccn([C@@H]2C[C@@H](F)[C@H](COP(=O)(O)OP(=O)(O)OP(=O)(O)O)O2)c(=O)[nH]1 (stereo in doubt) : 0.07

We now examine a further compound.
Input: Could you please provide reported IC50 for Cc1cn([C@@H]2C[C@@H](F)[C@H](COP(=O)(O)OP(=O)(O)OP(=O)(O)O)O2)c(=O)[nH]c1=O (stereo in doubt; 16) ? Thanks!
Output: 100

###

Assay system Human immunodeficiency virus type 1 reverse transcriptase (Human immunodeficiency virus 1); read-out recorded as IC50.
Response body: numeric value in nM, unit text excluded.

These solved cases illustrate the format of a correct answer.
Nc1ccn([C@@H]2C[C@@H](F)[C@H](COP(=O)(O)OP(=O)(O)OP(=O)(O)O)O2)c(=O)n1 (stereo in doubt) : 500
Cc1cn([C@@H]2C[C@@H](F)[C@H](COP(=O)(O)OP(=O)(O)OP(=O)(O)O)O2)c(=O)nc1N (stereo in doubt) : 600

Input: Could you please provide reported IC50 for Cc1cn([C@@H]2C[C@@H](F)[C@H](COP(=O)(O)OP(=O)(O)OP(=O)(O)O)O2)c(=O)[nH]c1=O (stereo in doubt) ? Thanks!
Output: 50

###

STUDY_TARGET: DNA polymerase subunit gamma-1 (Homo sapiens)
Sequence (P54098 whole entry): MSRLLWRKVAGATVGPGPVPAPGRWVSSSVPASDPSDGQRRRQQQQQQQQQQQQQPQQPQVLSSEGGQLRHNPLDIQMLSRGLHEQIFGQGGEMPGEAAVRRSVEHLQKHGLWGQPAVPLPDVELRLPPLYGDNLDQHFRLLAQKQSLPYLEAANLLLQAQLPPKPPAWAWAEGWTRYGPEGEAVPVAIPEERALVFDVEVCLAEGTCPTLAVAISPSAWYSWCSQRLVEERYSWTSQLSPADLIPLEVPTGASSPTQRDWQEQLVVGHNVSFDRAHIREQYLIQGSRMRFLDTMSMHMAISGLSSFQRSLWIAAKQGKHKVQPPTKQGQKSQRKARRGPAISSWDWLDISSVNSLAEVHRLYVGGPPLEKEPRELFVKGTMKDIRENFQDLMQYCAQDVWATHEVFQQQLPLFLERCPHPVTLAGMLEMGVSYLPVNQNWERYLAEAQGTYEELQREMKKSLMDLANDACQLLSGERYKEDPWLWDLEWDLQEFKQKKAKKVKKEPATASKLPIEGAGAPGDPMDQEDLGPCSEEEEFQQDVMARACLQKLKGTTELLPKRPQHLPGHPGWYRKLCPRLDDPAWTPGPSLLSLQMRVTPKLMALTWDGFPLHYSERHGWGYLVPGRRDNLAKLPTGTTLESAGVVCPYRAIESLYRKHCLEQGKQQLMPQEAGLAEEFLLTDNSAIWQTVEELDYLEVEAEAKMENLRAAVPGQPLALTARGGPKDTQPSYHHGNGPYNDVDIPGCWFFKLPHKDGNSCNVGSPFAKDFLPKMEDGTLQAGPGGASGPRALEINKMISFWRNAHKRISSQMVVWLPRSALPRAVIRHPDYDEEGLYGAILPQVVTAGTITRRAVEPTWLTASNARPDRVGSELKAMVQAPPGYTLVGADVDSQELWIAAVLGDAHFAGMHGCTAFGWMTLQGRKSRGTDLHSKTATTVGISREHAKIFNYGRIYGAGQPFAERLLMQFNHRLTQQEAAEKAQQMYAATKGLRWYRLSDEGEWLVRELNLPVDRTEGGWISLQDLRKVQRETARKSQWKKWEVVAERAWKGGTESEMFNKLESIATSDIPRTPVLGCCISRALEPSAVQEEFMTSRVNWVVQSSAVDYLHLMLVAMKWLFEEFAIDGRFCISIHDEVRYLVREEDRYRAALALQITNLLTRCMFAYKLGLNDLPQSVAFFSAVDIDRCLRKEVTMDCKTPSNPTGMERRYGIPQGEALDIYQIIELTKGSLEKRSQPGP
PROCEDURE_TEXT: Compound was evaluated for the inhibition of cellular DNA polymerase (gamma)
READOUT_TYPE: IC50

These solved cases illustrate the format of a correct answer.
O=c1ccn([C@@H]2C[C@@H](F)[C@H](COP(=O)(O)OP(=O)(O)OP(=O)(O)O)O2)c(=O)[nH]1 (stereo in doubt; 17) : > 100000 nM
Nc1ccn([C@@H]2C[C@@H](F)[C@H](COP(=O)(O)OP(=O)(O)OP(=O)(O)O)O2)c(=O)n1 (stereo in doubt; 18) : > 50000 nM
Cc1cn([C@@H]2C[C@@H](F)[C@H](COP(=O)(O)OP(=O)(O)OP(=O)(O)O)O2)c(=O)nc1N (stereo in doubt) : 500 nM
Cc1cn([C@@H]2C[C@@H](F)[C@H](COP(=O)(O)OP(=O)(O)OP(=O)(O)O)O2)c(=O)nc1N (stereo in doubt; 19) : > 50000 nM
Cc1cn([C@@H]2C[C@@H](F)[C@H](COP(=O)(O)OP(=O)(O)OP(=O)(O)O)O2)c(=O)[nH]c1=O (stereo in doubt; 16) : > 100000 nM

Input: Could you please provide reported IC50 for Nc1ccn([C@@H]2C[C@@H](F)[C@H](COP(=O)(O)OP(=O)(O)OP(=O)(O)O)O2)c(=O)n1 (stereo in doubt) ? Thanks!
Output: 2000 nM

Input: Could you please provide reported IC50 for O=c1ccn([C@@H]2C[C@@H](F)[C@H](COP(=O)(O)OP(=O)(O)OP(=O)(O)O)O2)c(=O)[nH]1 (stereo in doubt) ? Thanks!
Output: 3500 nM

Input: Could you please provide reported IC50 for Cc1cn([C@@H]2C[C@@H](F)[C@H](COP(=O)(O)OP(=O)(O)OP(=O)(O)O)O2)c(=O)[nH]c1=O (stereo in doubt) ? Thanks!
Output: 1500 nM

###

Recorded log10(IC50) values for a group of molecules are listed next.
Test system: Hepatitis B virus
PROCEDURE_TEXT: Compound was evaluated for 50% inhibition of HBV polymerases (Hepatitis B virus)
Format: functional, organism-based
Heads up: the numbers are on a log10 scale; they represent IC50 in nM.

These solved cases illustrate the format of a correct answer.
O=c1ccn([C@@H]2C[C@@H](F)[C@H](COP(=O)(O)OP(=O)(O)OP(=O)(O)O)O2)c(=O)[nH]1 (stereo in doubt; 17) : 4.54
Cc1cn([C@@H]2C[C@@H](F)[C@H](COP(=O)(O)OP(=O)(O)OP(=O)(O)O)O2)c(=O)nc1N (stereo in doubt) : 1.48
Nc1ccn([C@@H]2C[C@@H](F)[C@H](COP(=O)(O)OP(=O)(O)OP(=O)(O)O)O2)c(=O)n1 (stereo in doubt; 18) : 3.85
Cc1cn([C@@H]2C[C@@H](F)[C@H](COP(=O)(O)OP(=O)(O)OP(=O)(O)O)O2)c(=O)nc1N (stereo in doubt; 19) : 3.28
Nc1ccn([C@@H]2C[C@@H](F)[C@H](COP(=O)(O)OP(=O)(O)OP(=O)(O)O)O2)c(=O)n1 (stereo in doubt) : 2.70

We now examine a further molecule.
Input: Specify the recorded log10(IC50) for Cc1cn([C@@H]2C[C@@H](F)[C@H](COP(=O)(O)OP(=O)(O)OP(=O)(O)O)O2)c(=O)[nH]c1=O (stereo in doubt) , system: Hepatitis B virus.
Output: 2.18

###

Recorded IC50 values for a group of compounds are listed next.
STUDY_TARGET: UniProt P06746
PROCEDURE_TEXT: Compound was evaluated for the inhibition of cellular DNA polymerase (beta)

O=c1ccn([C@@H]2C[C@@H](F)[C@H](COP(=O)(O)OP(=O)(O)OP(=O)(O)O)O2)c(=O)[nH]1 (stereo in doubt; 17) : > 100 µM
Cc1cn([C@@H]2C[C@@H](F)[C@H](COP(=O)(O)OP(=O)(O)OP(=O)(O)O)O2)c(=O)[nH]c1=O (stereo in doubt; 16) : > 200 µM
Nc1ccn([C@@H]2C[C@@H](F)[C@H](COP(=O)(O)OP(=O)(O)OP(=O)(O)O)O2)c(=O)n1 (stereo in doubt; 18) : > 100 µM

We now examine a further compound.
Input: Specify the recorded IC50 for Cc1cn([C@@H]2C[C@@H](F)[C@H](COP(=O)(O)OP(=O)(O)OP(=O)(O)O)O2)c(=O)nc1N (stereo in doubt; 19) , system: UniProt P06746.
Output: > 200 µM
